target: Fc-fusion protein receptor ectodomain of BMPR-IB; experiment: ratio KD(IA):KD(IB) from Biacore, relative to wild type
OBSERVABLE: fold higher IB affinity over IA compared to WT
# output: number + unit

Here's what some known entries look like.
BINDER	RECORDED_VALUE
recombinant human GDF-5 mutant S439E (ligand) APLATRQGKRPSKNLKARCSRKALHVNFKDMGWDDWIIAPLEYEAFHCEGLCEFPLREHLEPTNHAVIQTLMNSMDPESTPPTCCVPTRLSPISILFIDSANNVVYKQYEDMVVESCGCR	14.5 fold
recombinant human GDF-5 mutant W414R (ligand) APLATRQGKRPSKNLKARCSRKALHVNFKDMGRDDWIIAPLEYEAFHCEGLCEFPLRSHLEPTNHAVIQTLMNSMDPESTPPTCCVPTRLSPISILFIDSANNVVYKQYEDMVVESCGCR	5.5 fold
human GDF-5 mutant W417F (ligand) APLATRQGKRPSKNLKARCSRKALHVNFKDMGWDDFIIAPLEYEAFHCEGLCEFPLRSHLEPTNHAVIQTLMNSMDPESTPPTCCVPTRLSPISILFIDSANNVVYKQYEDMVVESCGCR	14.7 fold
recombinant human GDF-5 mutant R399E (ligand) APLATRQGKRPSKNLKAECSRKALHVNFKDMGWDDWIIAPLEYEAFHCEGLCEFPLRSHLEPTNHAVIQTLMNSMDPESTPPTCCVPTRLSPISILFIDSANNVVYKQYEDMVVESCGCR	1.1 fold
recombinant human GDF-5 mutant I449V (ligand) APLATRQGKRPSKNLKARCSRKALHVNFKDMGWDDWIIAPLEYEAFHCEGLCEFPLRSHLEPTNHAVVQTLMNSMDPESTPPTCCVPTRLSPISILFIDSANNVVYKQYEDMVVESCGCR	5.5 fold

stdin: Could you tell me which fold higher IB affinity over IA compared to WT is on file for human GDF-5 mutant M412V (ligand) APLATRQGKRPSKNLKARCSRKALHVNFKDVGWDDWIIAPLEYEAFHCEGLCEFPLRSHLEPTNHAVIQTLMNSMDPESTPPTCCVPTRLSPISILFIDSANNVVYKQYEDMVVESCGCR ?
stdout: 8.3 fold

stdin: // repeat for human GDF-5 mutant W417R (ligand) APLATRQGKRPSKNLKARCSRKALHVNFKDMGWDDRIIAPLEYEAFHCEGLCEFPLRSHLEPTNHAVIQTLMNSMDPESTPPTCCVPTRLSPISILFIDSANNVVYKQYEDMVVESCGCR and report
stdout: 56.2 fold

stdin: // repeat for human GDF-5 mutant R438K (ligand) APLATRQGKRPSKNLKARCSRKALHVNFKDMGWDDWIIAPLEYEAFHCEGLCEFPLKSHLEPTNHAVIQTLMNSMDPESTPPTCCVPTRLSPISILFIDSANNVVYKQYEDMVVESCGCR and report
stdout: 5.9 fold
